# reported remaining at 20 min; entries follow
Target: CYP1A1 (Homo sapiens)
Sequence (P04798 whole entry): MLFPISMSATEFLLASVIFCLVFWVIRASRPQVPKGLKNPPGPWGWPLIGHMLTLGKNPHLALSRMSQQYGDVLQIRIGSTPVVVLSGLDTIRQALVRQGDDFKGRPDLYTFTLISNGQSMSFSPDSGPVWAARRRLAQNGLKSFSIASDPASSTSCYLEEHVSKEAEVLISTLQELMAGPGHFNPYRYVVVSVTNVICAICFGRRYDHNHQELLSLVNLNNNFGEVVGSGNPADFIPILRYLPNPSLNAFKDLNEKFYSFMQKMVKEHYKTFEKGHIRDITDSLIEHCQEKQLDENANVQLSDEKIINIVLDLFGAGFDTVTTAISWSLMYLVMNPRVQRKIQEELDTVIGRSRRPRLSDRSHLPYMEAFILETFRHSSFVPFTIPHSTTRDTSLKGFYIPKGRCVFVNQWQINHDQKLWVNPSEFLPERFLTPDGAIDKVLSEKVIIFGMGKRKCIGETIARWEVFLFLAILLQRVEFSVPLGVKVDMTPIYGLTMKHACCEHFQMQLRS
Assay: Activity at CYP1A1 in recombinant human CYP1A1 microsomes assessed as parent compound remaining after 20 mins by HPLC analysis
reported endpoint: remaining at 20 min

* COc1ccc(-c2cc(=O)c3c(O)cc(O)cc3o2)cc1 | 15.9%
* COc1ccc(-c2cc(=O)c3c(OC)c(OC)c(OC)cc3o2)cc1OC | 68.9%
* O=c1cc(-c2ccc(O)cc2)oc2cc(O)c(O)c(O)c12 | 12.6%
* COc1ccc(-c2cc(=O)c3c(O)c(OC)c(OC)cc3o2)cc1O | 47.8%
* COc1cc2oc(-c3ccc(O)c(O)c3)cc(=O)c2c(O)c1OC | 16.7%

----------
Target: Cytochrome P450 1B1 (Homo sapiens)
Sequence (Q16678 whole entry): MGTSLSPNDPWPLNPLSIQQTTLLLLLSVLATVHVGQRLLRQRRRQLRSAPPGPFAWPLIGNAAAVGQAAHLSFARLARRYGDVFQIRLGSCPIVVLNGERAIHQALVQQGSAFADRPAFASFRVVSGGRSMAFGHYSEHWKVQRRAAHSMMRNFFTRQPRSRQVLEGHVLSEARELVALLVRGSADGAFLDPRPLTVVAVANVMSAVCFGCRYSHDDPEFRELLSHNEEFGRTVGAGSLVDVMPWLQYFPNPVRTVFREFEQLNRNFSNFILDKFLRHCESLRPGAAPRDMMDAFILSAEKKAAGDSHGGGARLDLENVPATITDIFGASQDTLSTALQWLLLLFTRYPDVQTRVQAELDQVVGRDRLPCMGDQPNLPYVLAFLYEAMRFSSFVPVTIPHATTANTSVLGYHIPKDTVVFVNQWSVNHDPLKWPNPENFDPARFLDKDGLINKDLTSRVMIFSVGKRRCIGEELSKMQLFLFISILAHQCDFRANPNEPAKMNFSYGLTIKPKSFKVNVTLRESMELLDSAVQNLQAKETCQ
pKi: −log10 of the molar value.
reported endpoint: pKi

• COc1ccc(-c2cc(=O)c3c(OC)c(OC)c(OC)cc3o2)cc1O = 6.17
• O=c1c(O)c(-c2cc(O)c(O)c(O)c2)oc2cc(O)cc(O)c12 = 7.57
• O=c1cc(-c2ccc(O)cc2)oc2cc(O)c(O)c(O)c12 = 6.66

----------
Molecular target: CYP1A1 (Homo sapiens, UniProt P04798)
Test: Activity at CYP1A1 in recombinant human CYP1A1 microsomes assessed as parent compound remaining after 20 mins by HPLC analysis
reported endpoint: remaining at 20 min (%)

* COc1cc(O)c2c(=O)cc(-c3ccc(O)cc3)oc2c1 | 34
* COc1ccc(-c2cc(=O)c3c(OC)c(OC)c(OC)cc3o2)cc1O | 20.4
* O=c1cc(-c2ccccc2)oc2cc(O)cc(O)c12 | 15.9
